normalized RNA/DNA level with ligand (log10) by entry:
B1: library; a variant is named by its letters at N, in order (parent)
chain: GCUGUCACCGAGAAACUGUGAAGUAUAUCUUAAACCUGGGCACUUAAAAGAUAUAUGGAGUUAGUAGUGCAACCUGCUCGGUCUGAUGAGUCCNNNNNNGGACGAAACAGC

Variants of: B1
Assay: normalized RNA/DNA level with ligand (relative to sTRSVctl = 100) (log10 (% of sTRSVctl)); HEK293T; ligand: cyclic di-GMP (c-di-GMP-II aptamer); ligand concentration (+) RNA-Seq: 1 mM; higher = less ribozyme self-cleavage, higher mRNA level
Details: reporter: mCherry (pCS4076), ligand present: yes

Solved cases below.
GCUGUCACCGAGAAACUGUGAAGUAUAUCUUAAACCUGGGCACUUAAAAGAUAUAUGGAGUUAGUAGUGCAACCUGCUCGGUCUGAUGAGUCCAGGAACGGACGAAACAGC [AGGAAC] | 1.68
GCUGUCACCGAGAAACUGUGAAGUAUAUCUUAAACCUGGGCACUUAAAAGAUAUAUGGAGUUAGUAGUGCAACCUGCUCGGUCUGAUGAGUCCCCCCCUGGACGAAACAGC [CCCCCU] | 1.86
GCUGUCACCGAGAAACUGUGAAGUAUAUCUUAAACCUGGGCACUUAAAAGAUAUAUGGAGUUAGUAGUGCAACCUGCUCGGUCUGAUGAGUCCUGUGUCGGACGAAACAGC [UGUGUC] | 1.86

Query :: Reported normalized RNA/DNA level with ligand (log10) for GCUGUCACCGAGAAACUGUGAAGUAUAUCUUAAACCUGGGCACUUAAAAGAUAUAUGGAGUUAGUAGUGCAACCUGCUCGGUCUGAUGAGUCCAUCAACGGACGAAACAGC [AUCAAC] : what is it?
Result :: 1.8

Query :: What measured normalized RNA/DNA level with ligand (log10) goes with GCUGUCACCGAGAAACUGUGAAGUAUAUCUUAAACCUGGGCACUUAAAAGAUAUAUGGAGUUAGUAGUGCAACCUGCUCGGUCUGAUGAGUCCAAGCUGGGACGAAACAGC [AAGCUG] ?
Result :: 1.79

Query :: Param item = GCUGUCACCGAGAAACUGUGAAGUAUAUCUUAAACCUGGGCACUUAAAAGAUAUAUGGAGUUAGUAGUGCAACCUGCUCGGUCUGAUGAGUCCAAAUGGGGACGAAACAGC [AAAUGG] ; retrieve measured normalized RNA/DNA level with ligand (log10).
Result :: 1.68

Query :: What value of normalized RNA/DNA level with ligand (log10) has been reported for the following variant? GCUGUCACCGAGAAACUGUGAAGUAUAUCUUAAACCUGGGCACUUAAAAGAUAUAUGGAGUUAGUAGUGCAACCUGCUCGGUCUGAUGAGUCCUAAGUGGGACGAAACAGC [UAAGUG]
Result :: 1.78

Query :: Can you look up the measured normalized RNA/DNA level with ligand (log10) of GCUGUCACCGAGAAACUGUGAAGUAUAUCUUAAACCUGGGCACUUAAAAGAUAUAUGGAGUUAGUAGUGCAACCUGCUCGGUCUGAUGAGUCCUCCAUCGGACGAAACAGC [UCCAUC] for me?
Result :: 1.8

Query :: Using the record for GCUGUCACCGAGAAACUGUGAAGUAUAUCUUAAACCUGGGCACUUAAAAGAUAUAUGGAGUUAGUAGUGCAACCUGCUCGGUCUGAUGAGUCCCGACGGGGACGAAACAGC [CGACGG] , report its normalized RNA/DNA level with ligand (log10).
Result :: 1.8

Query :: GET /values?readout=normalized RNA/DNA level with ligand (log10)&item= GCUGUCACCGAGAAACUGUGAAGUAUAUCUUAAACCUGGGCACUUAAAAGAUAUAUGGAGUUAGUAGUGCAACCUGCUCGGUCUGAUGAGUCCAGAGGCGGACGAAACAGC [AGAGGC]
Result :: 1.77

Query :: Need normalized RNA/DNA level with ligand (log10), item GCUGUCACCGAGAAACUGUGAAGUAUAUCUUAAACCUGGGCACUUAAAAGAUAUAUGGAGUUAGUAGUGCAACCUGCUCGGUCUGAUGAGUCCUCCUAGGGACGAAACAGC [UCCUAG]
Result :: 1.82

Query :: Which normalized RNA/DNA level with ligand (log10) is reported for this variant? GCUGUCACCGAGAAACUGUGAAGUAUAUCUUAAACCUGGGCACUUAAAAGAUAUAUGGAGUUAGUAGUGCAACCUGCUCGGUCUGAUGAGUCCACAUCAGGACGAAACAGC [ACAUCA]
Result :: 1.79

Query :: Requested field: normalized RNA/DNA level with ligand (log10). Item: GCUGUCACCGAGAAACUGUGAAGUAUAUCUUAAACCUGGGCACUUAAAAGAUAUAUGGAGUUAGUAGUGCAACCUGCUCGGUCUGAUGAGUCCGUUCGUGGACGAAACAGC [GUUCGU]
Result :: 1.8

Query :: Consider the variant GCUGUCACCGAGAAACUGUGAAGUAUAUCUUAAACCUGGGCACUUAAAAGAUAUAUGGAGUUAGUAGUGCAACCUGCUCGGUCUGAUGAGUCCGACCAUGGACGAAACAGC [GACCAU] and give its measured normalized RNA/DNA level with ligand (log10).
Result :: 1.79

Query :: What does the record list as normalized RNA/DNA level with ligand (log10) for GCUGUCACCGAGAAACUGUGAAGUAUAUCUUAAACCUGGGCACUUAAAAGAUAUAUGGAGUUAGUAGUGCAACCUGCUCGGUCUGAUGAGUCCUUCUAUGGACGAAACAGC [UUCUAU] ?
Result :: 1.83

Reference source: the supplement of paper PMC6757056
